# System: PBMC
# EXPERIMENT: Cytotoxicity against human PBMC measured after overnight incubation by MTT assay
# Format: cell-based
This section presents compounds with their documented IC50 values.

* CCn1cc(C(=O)O)c(=O)c2cc(F)c(N3CCNCC3)cc21 [NORFLOXACIN] | > 500 µM
* O=C(N/N=C/N1CCN(c2cc3c(cc2F)c(=O)c(C(=O)O)cn3C2CC2)CC1)c1ccc(C(F)(F)F)cc1 | 347 µM
* O=C(O)c1cn(C2CC2)c2cc(N3CCNCC3)c(F)cc2c1=O [CIPROFLOXACIN] | > 500 µM
* CCn1cc(C(=O)O)c(=O)c2cc(F)c(N3CCN(/C=N/NC(=O)c4cccc(F)c4)CC3)cc21 | > 393 µM

Turning now to a further record.
### Prompt Entry O=C(O)c1ccc(N/C=N/NC(=O)c2ccccc2F)cc1O has what IC50?
### Response 1210 µM
